Tested on: Plasmodium yoelii
Test: Effective subcutaneous dose ED50 against Plasmodium yoelii sspNS
Assay type: functional
Details: sc
propertyName: ED50 (mg/kg)
One number for each entry, in mg/kg.

Here is how some molecules turned out for ED50.
molecule | ED50, mg/kg
C[C@@H]1CC[C@H]2[C@@H](CCCc3cccc(Cl)c3)CO[C@@H]3OC4(C)CC[C@@H]1[C@]32OO4 (single isomer, unassigned) | 0.6
OC(c1cc(C(F)(F)F)nc2c(C(F)(F)F)cccc12)C1CCCCN1 (stereo unspecified) | 2.3
C[C@@H]1CC[C@H]2[C@@H](CCCc3cccc(F)c3)CO[C@@H]3OC4(C)CC[C@@H]1[C@]32OO4 (single isomer, unassigned) | 0.58
CCN(CC)CCCC(C)Nc1ccnc2cc(Cl)ccc12 (stereo unspecified) | 1.6
C[C@@H]1CC[C@H]2[C@@H](CCCc3cccc(C(F)(F)F)c3)CO[C@@H]3OC4(C)CC[C@@H]1[C@]32OO4 (single isomer, unassigned) | 0.6

Switching to the query record.
Sample C[C@@H]1CC[C@H]2[C@@H](CCCc3ccc(C(F)(F)F)cc3)CO[C@@H]3OC4(C)CC[C@@H]1[C@]32OO4 (single isomer, unassigned) , system: Plasmodium yoelii. Its ED50 is 0.67
